Biological target: Muscarinic M2 receptor (Homo sapiens)
Sequence (P08172 1-466): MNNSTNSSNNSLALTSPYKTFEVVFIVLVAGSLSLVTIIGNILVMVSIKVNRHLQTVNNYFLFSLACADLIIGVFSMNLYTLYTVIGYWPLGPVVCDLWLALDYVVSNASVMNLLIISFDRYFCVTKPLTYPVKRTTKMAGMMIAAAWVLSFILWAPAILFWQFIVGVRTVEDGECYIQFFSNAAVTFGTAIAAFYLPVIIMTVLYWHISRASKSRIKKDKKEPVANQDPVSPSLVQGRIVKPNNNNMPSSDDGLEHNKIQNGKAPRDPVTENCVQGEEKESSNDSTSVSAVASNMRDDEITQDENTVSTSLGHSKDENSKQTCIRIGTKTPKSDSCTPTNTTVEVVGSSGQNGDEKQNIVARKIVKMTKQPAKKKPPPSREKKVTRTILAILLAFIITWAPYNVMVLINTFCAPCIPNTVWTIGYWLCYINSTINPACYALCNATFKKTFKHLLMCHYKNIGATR
pKi: −log10 of the molar value.
# if value of pKi reaches 5, tag Satisfied; if it stays below, tag Not satisfied

Here's what some known entries look like.
Cl.Cl.Nc1cccc(CN2CCC(NC(=O)[C@](O)(c3ccccc3)[C@@H]3CCC(F)(F)C3)CC2)n1 [Example 20, dihydrochloride] : Satisfied
Nc1cc(N)cc(CN2CCC(NC(=O)[C@](O)(c3ccccc3)[C@@H]3CCC(F)(F)C3)CC2)c1 [Example 27] : Satisfied
O=C(NC1CCN(Cc2ccccn2)CC1)[C@](O)(c1ccccc1)[C@@H]1CCC(F)(F)C1 [Example 14] : Satisfied
Cc1cccc(CN2CCC(NC(=O)[C@](O)(c3ccccc3)[C@@H]3CCC(F)(F)C3)CC2)n1 [Example 10] : Not satisfied
COc1cc(CN2CCC(NC(=O)[C@](O)(c3ccccc3)[C@@H]3CCC(F)(F)C3)CC2)ccc1N [Example 26] : Not satisfied

Consider the record given below.
Ask | Entry COc1cccc(CN2CCC(NC(=O)[C@](O)(c3ccccc3)[C@@H]3CCC(F)(F)C3)CC2)c1 [Example 15] : is its pKi no less than 5?
Reply | Satisfied
